The reported numbers originate from paper PMC12507022.

// values below are reported Km
Tested on: BpfA
Construct: recombinant from pET29a(+) (NdeI/XhoI) in E. coli BL21(DE3), Ni-NTA purified; contains flavin
measurement protocol: HPLC, Michaelis-Menten fit
Format: biochemical, Microbacterium sp. F2
reported conditions: 20 mM Tris-HCl pH 8.0, 30 °C, O2 as electron acceptor
I only need the number, in µM, no unit after it.

# annotated cases, reported Km shown
INSERT INTO assay_data (input_smiles, quantitative_result) VALUES
  ('Oc1ccc(Cc2ccc(O)cc2)cc1', 12.4),
  ('CCCc1ccc(O)c(OC)c1', 25.4),
  ('COCc1ccc(O)cc1', 297);

Now let's try a different one.
Exercise: Look up Km: `COc1cc(CO)ccc1O`
Key: 266
